Reported TGI by item:
test system: SNB-19 CNS; assay: NCI tumour cell line growth inhibition, 48 h

{"molecule": "Cc1cc2ccc(N)nc2[nH]c1=O", "TGI": "> 100 µM"}
{"molecule": "Cc1ccc(S(=O)(=O)NC(CO)C(=O)O)cc1 (stereo unspecified)", "TGI": "> 100 µM"}
{"molecule": "CCN(CC)CCO[Si](OCCN(CC)CC)(OCCN(CC)CC)OCCN(CC)CC", "TGI": "> 100 µM"}
{"molecule": "c1ccc(-c2nnc3nn4c(-c5ccccc5)cnnc4c3c2-c2ccccc2)cc1", "TGI": "61.2 µM"}
{"molecule": "Nc1c(C(=O)Nc2cccc3ccccc23)sc2nc3c(cc12)C(=O)CCC3", "TGI": "> 81 µM"}
{"molecule": "Cc1noc(/N=C2\\C=C(Nc3onc(C)c3C)C(=O)c3ccccc32)c1C", "TGI": "> 100 µM"}
